- test_details: in vivo
- test_parameters: C57B6, mouse
recorded_metric: half-life
Please don't drop the unit; write it after the number.

What half-life value was documented for this molecule, `CCc1cccc(NC(=O)N2CCc3nc(-c4ccc5c(c4)OCO5)nc(-c4ccccc4C)c3C2)c1` ? 660 min

* * *

- test_details: in vivo
- test_parameters: C57B6, mouse, iv, 5 mg/kg
recorded_metric: clearance (mL/min/kg)
Unit mL/min/kg implied. Number only.

What clearance value was documented for this molecule, `CCc1cccc(NC(=O)N2CCc3nc(-c4ccc5c(c4)OCO5)nc(-c4ccccc4C)c3C2)c1` ? 48

* * *

- test_details: in vivo
- test_parameters: C57B6, mouse, iv, 5 mg/kg
recorded_metric: Vd (L/kg)
Unit L/kg implied. Number only.

What Vd value was documented for this compound, `CCc1cccc(NC(=O)N2CCc3nc(-c4ccc5c(c4)OCO5)nc(-c4ccccc4C)c3C2)c1` ? 19

* * *

- test_details: in vivo
- test_parameters: C57B6, mouse, po, 50 mg/kg
recorded_metric: Cmax (nM)
Unit nM implied. Number only.

What Cmax value was documented for this compound, `CCc1cccc(NC(=O)N2CCc3nc(-c4ccc5c(c4)OCO5)nc(-c4ccccc4C)c3C2)c1` ? 2400

Ref: ChEMBL document CHEMBL1770138
